Biological target: CFTR channel in human colonic T84 cells (Homo sapiens, UniProt P13569)
Construct: results in the phosphorylation and opening of CFTR anion channels; host or cells: human colonic T84 cells
Sequence (P13569 whole entry): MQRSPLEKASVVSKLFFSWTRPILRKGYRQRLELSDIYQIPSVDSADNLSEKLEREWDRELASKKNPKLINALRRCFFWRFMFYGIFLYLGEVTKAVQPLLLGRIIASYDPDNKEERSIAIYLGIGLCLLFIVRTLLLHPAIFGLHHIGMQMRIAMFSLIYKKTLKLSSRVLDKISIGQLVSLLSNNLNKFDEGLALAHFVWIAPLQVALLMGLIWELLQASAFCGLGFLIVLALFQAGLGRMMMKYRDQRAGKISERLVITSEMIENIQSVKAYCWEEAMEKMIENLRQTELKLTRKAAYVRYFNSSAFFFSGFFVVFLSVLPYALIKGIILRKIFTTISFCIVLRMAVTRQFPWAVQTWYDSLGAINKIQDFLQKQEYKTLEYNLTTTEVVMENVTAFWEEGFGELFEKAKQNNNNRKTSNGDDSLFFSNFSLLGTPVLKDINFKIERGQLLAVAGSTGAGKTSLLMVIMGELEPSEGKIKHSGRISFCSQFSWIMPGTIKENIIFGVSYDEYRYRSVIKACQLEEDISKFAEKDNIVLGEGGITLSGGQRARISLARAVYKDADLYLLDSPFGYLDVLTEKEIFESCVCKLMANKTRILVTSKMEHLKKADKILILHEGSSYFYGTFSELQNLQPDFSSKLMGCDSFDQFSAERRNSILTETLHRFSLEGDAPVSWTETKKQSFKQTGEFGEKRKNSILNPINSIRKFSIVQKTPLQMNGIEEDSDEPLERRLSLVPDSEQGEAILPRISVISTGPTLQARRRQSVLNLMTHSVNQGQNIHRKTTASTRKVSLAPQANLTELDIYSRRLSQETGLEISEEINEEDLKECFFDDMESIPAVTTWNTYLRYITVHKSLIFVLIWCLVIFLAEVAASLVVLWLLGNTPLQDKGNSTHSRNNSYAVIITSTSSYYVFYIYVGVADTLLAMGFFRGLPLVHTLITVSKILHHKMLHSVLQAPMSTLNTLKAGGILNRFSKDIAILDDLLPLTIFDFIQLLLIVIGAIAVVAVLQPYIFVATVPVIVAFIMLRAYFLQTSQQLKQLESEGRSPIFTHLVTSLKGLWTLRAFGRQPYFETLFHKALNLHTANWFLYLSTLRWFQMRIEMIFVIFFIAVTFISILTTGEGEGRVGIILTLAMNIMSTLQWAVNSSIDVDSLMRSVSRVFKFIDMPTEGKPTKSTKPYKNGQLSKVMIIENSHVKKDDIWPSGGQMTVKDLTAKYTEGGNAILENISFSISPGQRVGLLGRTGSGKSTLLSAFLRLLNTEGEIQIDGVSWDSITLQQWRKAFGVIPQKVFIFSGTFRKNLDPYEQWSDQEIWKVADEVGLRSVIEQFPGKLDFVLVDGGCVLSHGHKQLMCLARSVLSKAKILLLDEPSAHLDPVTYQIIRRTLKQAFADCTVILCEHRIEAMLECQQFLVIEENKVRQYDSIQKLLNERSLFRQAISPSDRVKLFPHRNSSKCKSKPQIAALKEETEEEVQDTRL
Experiment: T84 assay (FLIPR membrane potential dye, forskolin/IBMX-stimulated CFTR)
Format: cell-based
Settings: average of at least 2 runs unless annotated n = 1
Structures can show the parent of a compound that is named as a salt.
Criterion: IC50 strictly less than 4 µM. Met: Criterion met. Not met: Criterion not met.

Please indicate whether the reported IC50 of Oc1c(Cl)cc(-c2cnc(OCc3ccc(CN4CCN(c5ccc(Cl)cc5Cl)CC4)cc3)nn2)cc1Cl [Compound 150] is strictly below 4 µM. Criterion met

Please indicate whether the reported IC50 of Cc1csc(CC(=O)N2CCN(Cc3ccc(COc4ncc(-c5cc(Cl)c(O)c(Cl)c5)nn4)cc3)CC2)n1 [Compound 225] is strictly below 4 µM. Criterion not met

Please indicate whether the reported IC50 of CNC(=O)C1Cc2ccccc2CN1Cc1ccc(COc2ncc(-c3cc(Cl)c(O)c(Cl)c3)nn2)cc1 (stereo not drawn) [Compound 185] is strictly below 4 µM. Criterion not met

Please indicate whether the reported IC50 of Oc1c(Cl)cc(-c2cnc(OCc3ccc(CN4CCC(O)(c5ccccc5)CC4)cc3)nn2)cc1Cl [Compound 173] is strictly below 4 µM. Criterion not met

Please indicate whether the reported IC50 of Oc1c(Br)cc(-c2cnc(Cc3cccc4ccccc34)nn2)cc1Br [Compound 130] is strictly below 4 µM. Criterion not met

Please indicate whether the reported IC50 of Oc1c(Br)cc(-c2cnc(OCc3cc(Cl)cc(Cl)c3)nn2)cc1Br [Compound 26] is strictly below 4 µM. Criterion met

Please indicate whether the reported IC50 of Oc1c(Cl)cc(-c2cnc(OCc3ccc(CN4CCc5ccccc5C4)cc3)nn2)cc1Cl [Compound 166] is strictly below 4 µM. Criterion met

Please indicate whether the reported IC50 of Oc1c(Br)cc(-c2cnc(OCc3ccc(Cl)cc3Cl)nn2)cc1Br [Compound 15] is strictly below 4 µM. Criterion met

Please indicate whether the reported IC50 of Oc1c(Cl)cc(-c2cnc(OCc3ccc(CN4CCC(Cc5ccccc5)CC4)cc3)nn2)cc1Cl [Compound 168] is strictly below 4 µM. Criterion not met

Please indicate whether the reported IC50 of Oc1c(Cl)cc(-c2cnc(OCc3ccc(F)c(F)c3)nn2)cc1Cl [Compound 147] is strictly below 4 µM. Criterion met

Please indicate whether the reported IC50 of CN(Cc1ccc(F)cc1)Cc1ccc(COc2ncc(-c3cc(Cl)c(O)c(Cl)c3)nn2)cc1 [Compound 165] is strictly below 4 µM. Criterion met

Please indicate whether the reported IC50 of Oc1c(Cl)cc(-c2cnc(OCCc3ccc(Cl)cc3)nn2)cc1Cl [Compound 112] is strictly below 4 µM. Criterion met

Please indicate whether the reported IC50 of Oc1c(Cl)cc(-c2cnc(NCc3cccc(Cl)c3Cl)nn2)cc1Cl [Compound 121] is strictly below 4 µM. Criterion not met

Please indicate whether the reported IC50 of COc1ccc(CCOc2ncc(-c3cc(Br)c(O)c(Br)c3)nn2)cc1 [Compound 97] is strictly below 4 µM. Criterion met

Please indicate whether the reported IC50 of CN(Cc1ccc(COc2ncc(-c3cc(Cl)c(O)c(Cl)c3)nn2)cc1)Cc1cccc(-c2cncnc2)c1 [Compound 206] is strictly below 4 µM. Criterion not met

Please indicate whether the reported IC50 of Oc1c(Br)cc(-c2cnc(COc3cc(Cl)ccc3Cl)nn2)cc1Br [Compound 43] is strictly below 4 µM. Criterion not met

Please indicate whether the reported IC50 of O=C(C1CC1)N1CCN(Cc2ccc(COc3ncc(-c4cc(Cl)c(O)c(Cl)c4)nn3)cc2)CC1 [Compound 219] is strictly below 4 µM. Criterion not met

Please indicate whether the reported IC50 of Cc1cc(OCc2ncc(-c3cc(Br)c(O)c(Br)c3)nn2)cc(C)c1Cl [Compound 47] is strictly below 4 µM. Criterion not met

Please indicate whether the reported IC50 of Cc1cc(Cl)ccc1OCc1ncc(-c2cc(Br)c(O)c(Br)c2)nn1 [Compound 39] is strictly below 4 µM. Criterion not met

Please indicate whether the reported IC50 of Oc1c(Br)cc(-c2cnc(OCCCc3ccc(Cl)cc3)nn2)cc1Br [Compound 95] is strictly below 4 µM. Criterion met

Please indicate whether the reported IC50 of CN(Cc1ccc(COc2ncc(-c3cc(Cl)c(O)c(Cl)c3)nn2)cc1)C(c1ccccc1)c1ccccc1 [Compound 171] is strictly below 4 µM. Criterion not met

Please indicate whether the reported IC50 of Oc1c(Br)cc(-c2cnc(COc3cccc(Cl)c3Cl)nn2)cc1Br [Compound 30] is strictly below 4 µM. Criterion not met

Please indicate whether the reported IC50 of CN1CCN(c2ccc(CNc3ncc(-c4cc(Cl)c(O)c(Cl)c4)nn3)cc2)CC1 [Compound 137, formate salt] is strictly below 4 µM. Criterion not met

Please indicate whether the reported IC50 of Oc1c(Cl)cc(-c2cnc(OCc3ccc(OC(F)(F)F)cc3)nn2)cc1Cl [Compound 154] is strictly below 4 µM. Criterion met

Please indicate whether the reported IC50 of Oc1c(Cl)cc(-c2cnc(OCc3ccc(CN4CCC(C(O)(c5ccccc5)c5ccccc5)CC4)cc3)nn2)cc1Cl [Compound 174, formate salt] is strictly below 4 µM. Criterion not met

Please indicate whether the reported IC50 of Oc1c(Br)cc(-c2cnc(OCc3ccc(Cl)cc3)nn2)cc1Br [Compound 20] is strictly below 4 µM. Criterion met

Please indicate whether the reported IC50 of O=C(O)c1ccccc1N1CCN(Cc2ccc(COc3ncc(-c4cc(Cl)c(O)c(Cl)c4)nn3)cc2)CC1 [Compound 144] is strictly below 4 µM. Criterion not met

Please indicate whether the reported IC50 of Cc1ccc(OCc2ncc(-c3cc(Cl)c(O)c(Cl)c3)nn2)c2c1CCC2 [Compound 41] is strictly below 4 µM. Criterion not met

Please indicate whether the reported IC50 of CN(Cc1ccc(COc2ncc(-c3cc(Cl)c(O)c(Cl)c3)nn2)cc1)Cc1ccc(-c2ccc(C(F)(F)F)cn2)cc1 [Compound 210] is strictly below 4 µM. Criterion not met

Please indicate whether the reported IC50 of CN(Cc1ccc(COc2ncc(-c3cc(Cl)c(O)c(Cl)c3)nn2)cc1)Cc1cncc(Br)c1 [Compound 170] is strictly below 4 µM. Criterion met

Please indicate whether the reported IC50 of Cc1ccc(CCOc2ncc(-c3cc(Br)c(O)c(Br)c3)nn2)cc1 [Compound 98] is strictly below 4 µM. Criterion met

Please indicate whether the reported IC50 of COc1ccc(CNc2ncc(-c3cc(Cl)c(O)c(Cl)c3)nn2)cc1 [Compound 132] is strictly below 4 µM. Criterion not met
